Test system: NCI-N87 gastric cancer cells
protocol description: Payload cell viability dose response (CellTiter-Glo 2.0), NCI-N87 (Example 4)
Assay type: cell-based, human
settings: NCI-N87, 144 h
measurement kind: CTG 144 h Rmin (%)
Answer format: numeric, % implied, no suffix.

Example entries and their recorded answers appear below.
[
  {
    "smiles string": "CO[C@H]([C@@H](C)[C@H]1O[C@]1(C)C[C@H](C)/C=C/C=C(\\C)[C@H]1O[C@@H](CNC(=O)[C@H]2CC[C@H](COC(=O)N3CCN(C)CC3)CC2)CC[C@@H]1C)[C@@H](C)O",
    "test value": 29.113
  },
  {
    "smiles string": "CO[C@H]([C@@H](C)[C@H]1O[C@]1(C)C[C@H](C)/C=C/C=C(\\C)[C@H]1O[C@@H](CC(=O)N[C@@H](CCOC(=O)N2CCN(C)CC2)C(=O)O)CC[C@@H]1C)[C@@H](C)O",
    "test value": "−63.41"
  },
  {
    "smiles string": "CO[C@H]([C@@H](C)[C@H]1O[C@]1(C)C[C@H](C)/C=C/C=C(\\C)[C@H]1O[C@@H](CC(=O)NCCCC[C@@H](NC(=O)N2CCN(C)CC2)C(=O)O)CC[C@@H]1C)[C@@H](C)O",
    "test value": 17.442
  },
  {
    "smiles string": "CO[C@H]([C@@H](C)[C@H]1O[C@]1(C)C[C@H](C)/C=C/C=C(\\C)[C@H]1O[C@@H](CC(=O)N[C@H](CCCOC(=O)N2CCN(C)CC2)C(=O)O)CC[C@@H]1C)[C@@H](C)O",
    "test value": "−60.543"
  }
]

--- query ---
INPUT: For the compound COC(=O)[C@@H](CCCCNC(=O)N1CCN(C)CC1)NC(=O)C[C@H]1CC[C@H](C)[C@@H](/C(C)=C/C=C/[C@@H](C)C[C@@]2(C)O[C@@H]2[C@H](C)[C@@H](OC)[C@@H](C)O)O1 , what CTG 144 h Rmin is on record?
OUTPUT: −86.347
